- measurementTarget: TXNDC5 (Mus musculus, UniProt Q91W90 Q91W90:34-417)
- Sequence (Q91W90 34-417, one chain of several): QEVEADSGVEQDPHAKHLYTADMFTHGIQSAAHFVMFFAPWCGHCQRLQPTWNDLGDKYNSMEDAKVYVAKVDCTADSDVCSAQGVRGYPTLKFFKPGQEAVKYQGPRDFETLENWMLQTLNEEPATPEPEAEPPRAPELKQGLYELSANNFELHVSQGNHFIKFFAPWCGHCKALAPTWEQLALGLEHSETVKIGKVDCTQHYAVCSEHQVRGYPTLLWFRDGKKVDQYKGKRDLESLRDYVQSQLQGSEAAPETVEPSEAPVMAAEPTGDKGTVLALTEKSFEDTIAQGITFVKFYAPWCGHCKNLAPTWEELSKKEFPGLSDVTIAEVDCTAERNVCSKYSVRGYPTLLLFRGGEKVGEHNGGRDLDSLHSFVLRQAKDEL
- assayOverview: magnetic nanoparticle (MARAS) pulldown with q-PCR, nonlinear regression
- experimentalContext: tags: Ni-column purified, baculovirus/insect cells, Sino Biological; double stem-loop (predicted)
assayReadout: pKd
Answers are plain numbers, as −log10 of the molar value.

Input line: Which pKd value belongs to AGCAGCACAGAGGTCAATGTAATCTTTATCTATCGGCGTGCTACCGTGAA (ssDNA) [Aptamer-3] ?
Output line: 8.12

// data source = patent US20230304019
